# TESTED TARGET: human TMEM16A (TMEM16Aabc variant) (Homo sapiens, UniProt Q5XXA6, DEL476-501, form not given)
# Sequence (Q5XXA6 with tags, fused parts or gaps DEL476-501): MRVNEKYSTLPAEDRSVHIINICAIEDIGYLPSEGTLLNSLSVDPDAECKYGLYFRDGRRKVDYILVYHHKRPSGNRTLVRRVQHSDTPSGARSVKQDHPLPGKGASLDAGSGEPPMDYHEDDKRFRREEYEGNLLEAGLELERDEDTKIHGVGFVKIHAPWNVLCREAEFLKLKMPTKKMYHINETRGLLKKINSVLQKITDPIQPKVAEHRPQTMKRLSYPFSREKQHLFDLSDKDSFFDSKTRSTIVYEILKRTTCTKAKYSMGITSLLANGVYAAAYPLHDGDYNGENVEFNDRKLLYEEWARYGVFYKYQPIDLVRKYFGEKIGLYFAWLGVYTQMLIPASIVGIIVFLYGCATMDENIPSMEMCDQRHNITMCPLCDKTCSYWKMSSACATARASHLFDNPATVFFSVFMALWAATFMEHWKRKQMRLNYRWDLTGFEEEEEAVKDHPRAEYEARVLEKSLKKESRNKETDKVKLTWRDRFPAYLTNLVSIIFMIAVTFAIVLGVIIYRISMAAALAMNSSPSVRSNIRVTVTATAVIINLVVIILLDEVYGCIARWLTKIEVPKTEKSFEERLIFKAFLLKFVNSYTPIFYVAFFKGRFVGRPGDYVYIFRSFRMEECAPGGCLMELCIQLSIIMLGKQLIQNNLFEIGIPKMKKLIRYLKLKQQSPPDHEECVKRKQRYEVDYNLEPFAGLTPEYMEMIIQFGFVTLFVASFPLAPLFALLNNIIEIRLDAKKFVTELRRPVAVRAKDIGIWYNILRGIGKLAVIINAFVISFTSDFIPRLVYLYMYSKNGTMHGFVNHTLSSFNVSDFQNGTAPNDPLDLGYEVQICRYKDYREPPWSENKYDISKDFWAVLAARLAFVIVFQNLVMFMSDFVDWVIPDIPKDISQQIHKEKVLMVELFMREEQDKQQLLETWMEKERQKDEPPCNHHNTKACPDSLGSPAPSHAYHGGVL
# TEST NAME: Automated whole-cell patch clamp (Qpatch) TMEM16A potentiator assay in FRT cells stably expressing human TMEM16A
# Type: cell-based
# EXPERIMENTAL CONTEXT: 3.33 μM solution of test compound; percentage increase of baseline TMEM16A current
Catalogue of % Potentiation @ 3.33 μM Avg values
EXPERIMENTAL ENDPOINT: % Potentiation @ 3.33 μM Avg (%)

>>> df
                                    compound  value_reported
 0  C#CC(C)(C)NC(=O)c1cc(NC(=O)Cc2cc(F)ccc2F)ccn1             139
 1  N#CC1(NC(=O)c2cc(NC(=O)Cc3ccc(Cl)c(O)c3)ccn2)CCOCC1             133
 2  N#CC1(NC(=O)c2cc(NC(=O)Cc3ccccc3Cl)ccn2)CCOCC1             147
 3  CC(C)(C)NC(=O)c1cccc(NC(=O)Cc2c(O)cccc2F)c1             163
 4  CCCC(C)(C)NC(=O)c1cc(NC(=O)Cc2cc(Cl)ccc2O)ccn1             203
 5  Cn1c(=O)c(C(=O)Nc2ccnc(C(=O)NC(C)(C)C#N)c2)cc2ccccc21             -16
 6  O=C(Cc1ccccc1Cl)Nc1ccnc(C(=O)NC2CC2(F)F)c1 (stereo not shown)              80
 7  O=C(Cc1cc(F)ccc1O)Nc1cccc(C(=O)NC2CCCCC2)c1             104
 8  C[C@](C#N)(CO)NC(=O)c1cc(NC(=O)Cc2cc(Cl)ccc2O)ccn1 (single isomer, unassigned) [Example 46a]             249
 9  Cc1ccc(O)c(CC(=O)Nc2ccnc(C(=O)NC(C)(C)C)c2)c1             200
10  CC1(CC(=O)Nc2ccnc(C(=O)NC(C)(C)C#N)c2)CCCCC1             147
11  C#CC(C)(C)NC(=O)c1cc(NC(=O)Cc2cccc(C(F)(F)F)c2)ccn1             117
12  CC(C)(C)NC(=O)c1cc(NC(=O)Cc2cc(O)ccc2Cl)ccn1 [Example 3.16b]             167
13  O=C(Cc1cc(Cl)ccc1O)Nc1ccnc(C(=O)NCCCc2ccccc2)c1             223
14  CC(C)(NC(=O)c1cc(NC(=O)Cc2ccccc2Cl)ccn1)C1CC1             100
15  O=C(Cc1cc(Cl)ccc1O)Nc1cccc(C(=O)NC23CC4CC(CC(C4)C2)C3)c1             170
16  CC(C)(C)NC(=O)c1cccc(NC(=O)Cc2cc(F)ccc2O)c1             216
17  Cc1cc(C(=O)Nc2ccnc(C(=O)NC(C)(C)C#N)c2)c(C)n1Cc1cccs1              95
18  CC(C)(C)NC(=O)c1cc(NC(=O)[C@@H]2CCc3ccccc32)ccn1 (single isomer, unassigned) [Example 21b]             164
19  CC(C)(C)NC(=O)c1cc(NC(=O)Cc2cc(F)ccc2O)ccn1             111
20  O=C(Cc1cc(Cl)ccc1O)Nc1cccc(C(=O)NC2(CO)CCOC2)c1 (stereo not shown)              49
21  CC(=O)NCCC(C)(C)NC(=O)c1cc(NC(=O)Cc2cc(Cl)ccc2O)ccn1              54
22  CC(C)(C)NC(=O)c1cc(NC(=O)Cc2cc(Cl)ccc2O)c(Cl)cn1             114
23  CC1(NC(=O)c2cccc(NC(=O)Cc3cc(Cl)ccc3O)c2)CCC1             218
24  O=C(Cc1cc(Cl)ccc1O)Nc1ccnc(C(=O)N[C@H]2CCC[C@@H]2O)c1             153
25  O=C(Cc1cc(Cl)ccc1O)Nc1ccnc(C(=O)NC2(CO)COC2)c1             157
26  O=C(Cc1cc(Cl)ccc1O)Nc1ccnc(C(=O)NC2(CO)CCC2)c1             126
27  CC(C)(C)OC(=O)N1CCCC(NC(=O)c2cccc(NC(=O)Cc3cc(Cl)ccc3O)c2)C1 (stereo not shown)              88
28  N#CC1(NC(=O)c2cccc(NC(=O)Cc3cc(F)ccc3O)c2)CCOCC1              38
29  CC(C)(C)NC(=O)c1cc(NC(=O)Cc2ncccc2O)ccn1              57
30  CC(C)(C#N)NC(=O)c1cc(NC(=O)Cc2cc(F)ccc2O)ccn1             151
31  O=C(Cc1ccccc1Cl)Nc1ccnc(C(=O)NC23CCC(F)(C2)C3)c1             221
32  CC(C)(C)NC(=O)c1cc(NC(=O)Cc2ccc(F)cc2O)ccn1             116
33  N#CC1(NC(=O)c2cc(NC(=O)Cc3ccc4ncccc4c3)ccn2)CCC1             101
